Each recorded value in this set is attributed to ChEMBL document CHEMBL1126890.

Assay: Kobs versus inhibitory concentration
Set-up: species or system Aves
assay_metric: Ki
Answer shape: numeric part, then the unit.

Suppose we examine the molecule Nc1c([N+](=O)[O-])ncn1[C@@H]1O[C@H](COP(=O)(O)O)[C@@H](O)[C@H]1O ; what Ki value has been reported? 1.4 nM

* * *

Experiment: Changes in free energy concentration
Set-up: species or system Aves
assay_metric: pKi
Recall that pKi is obtained by taking minus log10 of the concentration measured in molar.

Suppose we examine the compound Nc1c([N+](=O)[O-])ncn1[C@@H]1O[C@H](COP(=O)(O)O)[C@@H](O)[C@H]1O ; what pKi value has been reported? 8.80
